- measurementDescription: inhibitors of TNFa-induced NFkB p65 translocation, primary screen, imaging, HUVEC, MLSMR starter and 10KST1 sets (AID 438);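 note: compound added about 3h40 before a 20 min TNFalpha stimulation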;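 for inhibition: signal is the nuclear over cytoplasmic p65 intensity ratio per well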
- experimentalSetup: HUVEC TNFa-induced p65 nuclear translocation; at 2 µM, stronger effect = higher value, 0% TNFa-plus-vehicle, 100% no-TNFa wells
Active and inactive are the calls of the source.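 Rule for the calls: active = inhibition above 20% together with a positive visual image hit; inconclusive = visual image hit but inhibition not above 20%; inactive = no visual image hit.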
Each record here notes measured inhibition.

The cases that follow already have their inhibition on record.
| compound | inhibition |
| --- | --- |
| Cc1ccc(NC(=O)Cn2nc(C)c3ccccc3c2=O)cc1 | -1.6% (inactive) |
| O=S(=O)(Nc1nc2ccccc2nc1NCc1ccco1)c1ccc(Cl)cc1 | 0.9% (inactive) |
| COc1ccc(CSC2=NCCN2)cc1Cl | -2.2% (inactive) |
| CCOC(=O)COn1c(=O)c(-c2ccc(OC)c(OC)c2)[n+]([O-])c2ccccc21 | -6% (inactive) |
| O=C1CC(C(=O)O)c2ccccc2N1 (configuration not stated) | 5.9% (inactive) |

Next:
// sample N#Cc1c(N2CCCCC2)nc(N2CCCCC2)c2c1CCN(Cc1ccccc1)C2 , its inhibition was -3.7% (inactive)

---

- assayTarget: Muscarinic acetylcholine receptor M4 (Homo sapiens)
- measurementDescription: compounds altering M4/GIRK thallium flux, either direction, primary screen, M4 allosteric agonist project, cell-based, HEK293 M4/GIRK, BTC-AM (AID 625);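 note: thallium influx through GIRK channels coupled to M4 in HEK293 cells with BTC-AM dye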
- experimentalSetup: at 10 µM, actives lie on both sides
Activity calls are given as the source filed them.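 Rule for the calls: active = fluorescence slope after compound addition differing from the mean of all tested samples at 99.7% confidence, mostly higher but some lower; inactive = the rest.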
Each record here notes measured fluorescence slope.

The cases that follow already have their fluorescence slope on record.
| molecule | assayTarget | obsValue |
| --- | --- | --- |
| CCCc1cc(=O)oc2c(C)c(O)c(CN3CCCCC3)cc12 | Muscarinic acetylcholine receptor M4 (Homo sapiens) | 0.00467 (inactive) |
| COc1cccc(NC(=O)c2cc(C(=O)Nc3cccc(OC)c3)n(C)n2)c1 | Muscarinic acetylcholine receptor M4 (Homo sapiens) | 0.00667 (inactive) |
| CNc1oc(-c2ccccc2Cl)nc1C#N | Muscarinic acetylcholine receptor M4 (Homo sapiens) | 0.00508 (inactive) |

// sample COC(=O)/C=c1/s/c(=C(/C#N)C(=O)N2CCCCC2)n(-c2ccccc2)c1=O , its fluorescence slope was 0.00519 (inactive)

// sample Cc1ccc(S(=O)(=O)c2cc3c(=O)n4cccc(C)c4nc3n(CC3CCCO3)c2=N)cc1 (stereo unspecified) , its fluorescence slope was 0.00435 (inactive)

// sample COc1cc(S(=O)(=O)N2CCN(C)CC2)c(OC)cc1Br , its fluorescence slope was 0.00502 (inactive)

// sample N#C/C(C(=O)NCc1ccco1)=C1/SC(Cc2ccc(Cl)cc2)C(=O)N1c1ccccc1 (stereo unspecified) , its fluorescence slope was 0.00683 (inactive)

// sample CCCc1cc(NCCCCO)n2c(nc3ccccc32)c1C#N , its fluorescence slope was 0.00464 (inactive)

// sample CCOC(=O)C1CCN(c2nc3ccccc3nc2C(C#N)C(=O)OC(C)COC)CC1 (stereo unspecified) , its fluorescence slope was 0.00472 (inactive)

// sample CCOC(=O)C1CCN(c2ncnc3c2cnn3-c2ccc(Cl)cc2)CC1 , its fluorescence slope was 0.00741 (inactive)

// sample Nc1ccc2c3c(cccc13)CC2 , its fluorescence slope was 0.00407 (inactive)

---

- measurementDescription: inhibitors of TNFa-induced NFkB p65 translocation, primary screen, imaging, HUVEC, MLSMR starter and 10KST1 sets (AID 438);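 note: compound added about 3h40 before a 20 min TNFalpha stimulation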
- experimentalSetup: HUVEC TNFa-induced p65 nuclear translocation; measured here: nuclei count (cytotoxicity indicator), at 2.08 µM
// classify(record): look up cell count in ranges LOW = under 400, MEDIUM = from 400 up to 600, HIGH = 600 and over

Solved cases (6 shown):
| compound | labelClass |
| --- | --- |
| Cc1cc(C)c2c(CC(=O)NCc3ccco3)coc2c1 | LOW |
| O=C1OCc2cc(NC(=O)C3CCCO3)ccc21 (configuration not stated) | HIGH |
| CN(C)c1nc(OCCNC(=O)Nc2ccccc2)nc(N(C)C)n1 | MEDIUM |
| Cc1cc(=O)oc2ccc(OCC(=O)N3CCc4ccccc43)cc12 | HIGH |
| CCOc1ccc(CNc2ccc3c(c2)ncn3C)cc1 | LOW |
| CCOCCn1c(SCc2c(F)cccc2Cl)nc2c1c(=O)[nH]c(=O)n2C | HIGH |

Task item: Textbook exercise: identify the category of the compound given here, CCCCOC(=O)c1ccc(NC(=O)CSc2nncn2C)cc1 , according to its measured value.
Reply: MEDIUM

Task item: Textbook exercise: identify the category of the compound given here, CNC(=O)CSc1nnc(-c2ccc(S(=O)(=O)N3CCCC3)cc2)n1-c1cccc(C)c1C , according to its measured value.
Reply: HIGH

Task item: Textbook exercise: identify the category of the compound given here, COc1ccc(OCC(=O)Nc2cccc3ncccc23)cc1 , according to its measured value.
Reply: HIGH
